# System: testes
# protocol.details: 5 day systemic administration in male SH rats, testis
# Type: in vivo, rat
# protocol.conditions: male SH rats, oral daily for 5 days at 50 mg/ml, day 6
Overview of recorded Testis shrinkage for various compounds
Reply with just the number (in %).

Record excerpt, results attached:
*Q* Tell me the measured Testis shrinkage of O=C(NO)c1nn(Cc2ccc(Cl)cc2Cl)c2ccccc12 [Compound 1] , please.
*A* −2.5

*Q* Entry O=C(O)c1nn(Cc2ccc(Cl)cc2Cl)c2ccccc12 [Compound 12] has what Testis shrinkage?
*A* 42

*Q* So what does the record say about Testis shrinkage for NC(=O)c1nn(Cc2ccc(Cl)cc2Cl)c2ccccc12 [Compound 5] ?
*A* −3.5

*Q* What does the data say about its Testis shrinkage? Entry: CONC(=O)c1nn(Cc2ccc(Cl)cc2Cl)c2ccccc12 [Compound 53]
*A* 9.2

Continuing:
*Q* Recorded Testis shrinkage of O=C(O)c1nn(Cc2c(Cl)cccc2Cl)c2ccccc12 [Compound 3] , please.
*A* 0.4

*Q* What value of Testis shrinkage has been recorded for this entry: O=C(Nc1cccnc1)c1nn(Cc2ccc(Cl)cc2Cl)c2ccccc12 [Compound 51]
*A* 2.2

*Q* What value of Testis shrinkage has been reported for the following compound? O=C(NO)c1nn(Cc2ccc(Cl)cc2Cl)c2ccc(Cl)cc12 [Compound 54]
*A* 0.3

*Q* Using the record for O=C(c1nn(Cc2ccc(Cl)cc2Cl)c2ccccc12)N1CCOCC1 [Compound 48] , report its Testis shrinkage.
*A* 4.3

All values here come from patent US20070015771A1.
